Assign CC50 at 5 days to each entry below.
Assay: Cytotoxicity in the coronavirus assay, uninfected parallel cultures
Type: cell-based
Settings: human, read-out: OC43CoV CC50

Given C[C@H](NP(=O)(OC[C@@]1(F)O[C@@](C#N)(c2ccc3c(N)ncnn23)[C@H](O)[C@@H]1O)Oc1ccccc1)C(=O)OCC(C)(C)C (some centres unmarked) [Compound 8] , state its recorded CC50 at 5 days.
> 50 µM

Next: CC(C)OC(=O)[C@@H](C)NP(=O)(OC[C@@]1(N=[N+]=[N-])O[C@@](C#N)(c2ccc3c(N)ncnn23)[C@H](O)[C@@H]1O)Oc1ccccc1 (some centres unmarked) [Compound 11]
> 50 µM

Next: CCCOC(=O)[C@H](C)NP(=O)(N[C@@H](C)C(=O)OCCC)OC[C@@]1(F)O[C@@](C#N)(c2ccc3c(N)ncnn23)[C@H](O)[C@@H]1O [Compound 10]
> 50 µM

Next: CC(C)CCOC(=O)C[C@H](NP(=O)(OC[C@@]1(F)O[C@@](C#N)(c2ccc3c(N)ncnn23)[C@H](O)[C@@H]1O)Oc1ccccc1)C(=O)OCCC(C)C (some centres unmarked) [Compound 7]
13 µM

Next: CC(C)OC(=O)[C@@H](C)NP(=O)(OC[C@@]1(F)O[C@@](C#N)(c2ccc3c(N)ncnn23)[C@H](O)[C@@H]1O)Oc1ccccc1 (some centres unmarked) [Compound 5]
> 100 µM

Next: CCC(CC)COC(=O)[C@@H](C)NP(=O)(OC[C@H]1O[C@@](C#N)(c2ccc3c(N)ncnn23)[C@H](O)[C@@H]1O)Oc1ccccc1 (some centres unmarked) [Compound C1, reference compound]
69 µM

Next: CC(C)OC(=O)[C@H](C)NP(=O)(OC[C@@]1(F)O[C@@](C#N)(c2ccc3c(N)ncnn23)[C@H](O)[C@@H]1O)Oc1ccccc1 (some centres unmarked) [Compound 6]
> 100 µM

Next: CCC(CC)COC(=O)[C@@H](C)NP(=O)(OC[C@@]1(F)O[C@@](C#N)(c2ccc3c(N)ncnn23)[C@H](O)[C@@H]1O)Oc1ccccc1 (some centres unmarked) [Compound 9]
34 µM

Value source: patent US11149049B2
